- System: army worm (Spodoptera exigua) caterpillars
- assay remarks: Spodoptera exigua test (cabbage leaves dipped)
- Assay type: in vivo
- assay setup: kill, 100 ppm active compound
readout type: Efficacy in % after 7 d (%)
Provide the reading as a plain figure in %.

Sample answers from the record:
CC(C)Sc1ccc(-c2ccc(C3CCC(c4c(F)cccc4F)=N3)cc2)cn1 (stereo not shown) :: 100
CC(C)Oc1ccc(-c2ccc(C3CCC(c4c(F)cccc4F)=N3)cc2)cn1 (stereo not shown) :: 100
CCSc1ccc(-c2ccc(C3CCC(c4c(F)cccc4F)=N3)cc2)cn1 (stereo not shown) :: 100

Okay, now this molecule:
Task: Specify Efficacy in % after 7 d for CCCOc1ccc(-c2ccc(C3CCC(c4c(F)cccc4F)=N3)cc2)cn1 (stereo not shown) , system army worm (Spodoptera exigua) caterpillars.
Result: 100

Data provenance is patent US7115603B2.
